# experiment.summary: Inhibition of human c-SRC expressed in mouse NIH/3T3 cells assessed as inhibition of cell growth in presence of 1.5% FCS by BrdU incorporation assay
Answer each item with its documented pIC50.
Give only the number. pIC50 is defined as minus log10 of concentration in molar units.

// pIC50 lookup, key: O=C(Cc1ccc(-c2ccccc2)cc1)NCc1cccc(F)c1
6.46

Next compound: O=C(Cc1ccc(-c2ccccc2)cn1)NCc1cccc(F)c1
6.57

Consider next the compound O=C(Cc1ccc(-c2ccc(OCCN3CCOCC3)cc2)cn1)NCc1ccccc1 in the same way.
7.89

Now give it for O=C(Cc1ccc(-c2ccc(OCCN3CCOCC3)cc2)cn1)NCc1cccc(F)c1 too.
6.93
